Hey, just so you know, these numbers are from patent US20240190849A1.

- target_desc: FGFR2 (Homo sapiens, UniProt P21802)
- Construct: made in house; host or cells: E. coli derived from BL21, infected with T7 phage
- Sequence (P21802 22-821): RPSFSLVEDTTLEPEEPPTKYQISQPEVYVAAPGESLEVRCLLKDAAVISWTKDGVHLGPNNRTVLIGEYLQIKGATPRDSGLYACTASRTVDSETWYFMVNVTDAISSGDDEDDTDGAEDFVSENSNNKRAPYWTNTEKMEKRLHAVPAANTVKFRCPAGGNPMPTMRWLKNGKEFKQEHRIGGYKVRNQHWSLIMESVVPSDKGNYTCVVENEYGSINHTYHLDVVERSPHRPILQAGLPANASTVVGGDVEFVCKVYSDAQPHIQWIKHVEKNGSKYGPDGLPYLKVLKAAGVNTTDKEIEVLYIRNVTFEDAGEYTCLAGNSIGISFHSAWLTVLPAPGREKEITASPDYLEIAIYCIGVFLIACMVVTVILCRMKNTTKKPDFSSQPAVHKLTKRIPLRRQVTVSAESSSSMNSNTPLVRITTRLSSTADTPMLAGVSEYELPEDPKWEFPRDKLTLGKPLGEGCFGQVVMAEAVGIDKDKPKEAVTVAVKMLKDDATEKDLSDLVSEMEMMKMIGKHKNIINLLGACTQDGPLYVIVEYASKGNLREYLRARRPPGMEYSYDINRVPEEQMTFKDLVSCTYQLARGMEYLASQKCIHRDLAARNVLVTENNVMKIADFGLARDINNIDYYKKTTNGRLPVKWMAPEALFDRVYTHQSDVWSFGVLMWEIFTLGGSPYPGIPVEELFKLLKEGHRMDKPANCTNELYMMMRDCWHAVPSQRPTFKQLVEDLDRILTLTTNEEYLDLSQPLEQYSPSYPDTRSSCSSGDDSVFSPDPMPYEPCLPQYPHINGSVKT
- protocol_notes: Kinase binding assay (kinase-tagged T7 phage, affinity beads, qPCR readout), FGFR2
- conditions_used: FGFR binding data
- Procedure: Kinase-tagged T7 phage strains were prepared in an E. coli host derived from the BL21 strain. E. coli were grown to log-phase and infected with T7 phage and incubated with shaking at 32° C. until lysis. The lysates were centrifuged and filtered to remove cell debris. […] Test compounds were prepared as 111× stocks in 100% DMSO. Kds were determined using an 11-point 3-fold compound dilution series with three DMSO control points. […] The kinase concentration in the eluates was measured by qPCR. […]

{"columns": ["molecule", "Kd"],
 "data": [
  ["C=CC(=O)Nc1ccc2c(c1)cc(C)n2-c1nc(Nc2cnn(C)c2)ncc1F", "0.1 to 100 nM"],
  ["C=CC(=O)Nc1ccc2c(-c3nc(Nc4cnn(CCO)c4)ncc3F)cn(C)c2c1", "0.1 to 100 nM"],
  ["C=CC(=O)N(C)c1ccc2c(c1)c(C)cn2-c1nc(Nc2ccnn2C)ncc1C", "> 1000 nM"],
  ["C=CC(=O)Nc1ccc2c(c1)c(C)cn2-c1cc(Nc2cn(C)nc2C)ncn1", "> 1000 nM"],
  ["C=CC(=O)Nc1ccc2c(c1)c(C)cn2-c1nc(Nc2cnn(CCO)c2)ncc1F", "0.1 to 100 nM"],
  ["C=CC(=O)Nc1ccc2c(c1)c(C)cn2-c1ccnc(Nc2ccc(N3CCOCC3)cc2)n1", "0.1 to 100 nM"],
  ["C#CC(=O)Nc1ccc2c(-c3nc(Nc4cnn(CCO)c4)ncc3F)cn(C)c2c1", "0.1 to 100 nM"],
  ["C=CC(=O)Nc1ccc2c(-c3nc(Nc4ccc(N(C)CCN(C)C)c(OC)c4)ncc3Cl)cn(C)c2c1", "0.1 to 100 nM"],
  ["C=CC(=O)Nc1cnc2c(c1)c(C)cn2-c1nc(Nc2ccnn2C)ncc1F", "0.1 to 100 nM"],
  ["CC#CC(=O)Nc1ccc2c(-c3ccnc(Nc4cnn(CCO)c4)n3)cn(C)c2c1", "250 to 1000 nM"],
  ["C=CC(=O)Nc1ccc2c(ccn2-c2nc(Nc3ccc(N4CCOCC4)cc3OCC)ncc2Cl)c1", "> 1000 nM"],
  ["C=CC(=O)Nc1ccc2c(c1)c(C)cn2-c1nc(Nc2cn(CC(C)(C)O)nc2C)ncc1F", "0.1 to 100 nM"],
  ["C=CC(=O)Nc1ccc2c(c1)c(C)cn2-c1cc(Nc2cnn(C)c2)ncn1", "250 to 1000 nM"],
  ["C=CC(=O)Nc1ccc2c(c1)c(C)cn2-c1nc(Nc2ccnn2C)ncc1F", "0.1 to 100 nM"],
  ["C=CC(=O)Nc1ccc2c(c1)c(C)cn2-c1nc(Nc2cnn(CC(C)OC)c2)ncc1F (centres unmarked)", "0.1 to 100 nM"],
  ["C=CC(=O)Nc1ccc2c(c1)c(C)cn2-c1nc(Nc2cnn(C)c2)ncc1Cl", "0.1 to 100 nM"],
  ["C=CC(=O)Nc1ccc2c(-c3ccnc(Nc4ccn(C)n4)n3)cn(C)c2c1", "100 to 250 nM"]
]}

----------
- target_desc: FGFR3 (V555M) (Homo sapiens, UniProt P22607, V555M)
- Construct: made in house; host or cells: E. coli derived from BL21, infected with T7 phage
- Sequence (P22607 23-806 V555M): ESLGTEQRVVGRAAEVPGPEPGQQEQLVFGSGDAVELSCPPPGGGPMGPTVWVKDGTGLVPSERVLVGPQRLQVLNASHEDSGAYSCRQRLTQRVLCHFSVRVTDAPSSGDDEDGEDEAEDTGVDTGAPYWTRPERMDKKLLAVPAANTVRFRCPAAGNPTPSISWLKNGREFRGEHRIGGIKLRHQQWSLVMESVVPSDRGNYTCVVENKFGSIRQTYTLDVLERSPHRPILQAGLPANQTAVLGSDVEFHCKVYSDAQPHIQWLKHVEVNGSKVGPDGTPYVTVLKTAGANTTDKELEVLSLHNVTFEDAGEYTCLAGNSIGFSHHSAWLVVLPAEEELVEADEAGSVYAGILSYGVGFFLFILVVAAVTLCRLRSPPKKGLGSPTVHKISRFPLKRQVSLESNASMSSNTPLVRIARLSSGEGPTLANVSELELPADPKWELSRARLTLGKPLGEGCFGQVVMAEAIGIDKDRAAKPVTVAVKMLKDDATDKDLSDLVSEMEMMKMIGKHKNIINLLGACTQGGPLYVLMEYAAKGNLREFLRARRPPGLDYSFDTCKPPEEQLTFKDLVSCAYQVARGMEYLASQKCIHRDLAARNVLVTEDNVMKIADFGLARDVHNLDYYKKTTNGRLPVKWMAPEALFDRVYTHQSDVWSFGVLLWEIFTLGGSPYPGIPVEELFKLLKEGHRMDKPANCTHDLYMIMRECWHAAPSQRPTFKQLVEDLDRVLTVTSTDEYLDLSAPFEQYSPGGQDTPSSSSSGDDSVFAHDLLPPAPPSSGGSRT
- protocol_notes: Kinase binding assay (kinase-tagged T7 phage, affinity beads, qPCR readout), FGFR3 (V555M)
- conditions_used: FGFR binding data

{"columns": ["compound", "target_desc", "Kd"],
 "data": [
  ["C=CC(=O)Nc1cc(C)c2c(c1)c(C)cn2-c1nc(Nc2cnn(C)c2)ncc1Cl [Example 84]", "FGFR3 (V555M) (Homo sapiens, UniProt P22607, V555M)", "0.1 to 100 nM"],
  ["C=CC(=O)Nc1ccc2c(c1)c(C)cn2-c1nc(Nc2ccn(CCO)n2)ncc1C [Example 100]", "FGFR3 (V555M) (Homo sapiens, UniProt P22607, V555M)", "0.1 to 100 nM"],
  ["C=CC(=O)Nc1ccc2c(-c3nc(Nc4cnn(CCO)c4)ncc3Cl)cn(C)c2c1 [Example 127]", "FGFR3 (V555M) (Homo sapiens, UniProt P22607, V555M)", "0.1 to 100 nM"],
  ["C=CC(=O)Nc1ccc2c(ccn2-c2nc(Nc3cn(C)nc3OC)ncc2Cl)c1 [Example 12]", "FGFR3 (V555M) (Homo sapiens, UniProt P22607, V555M)", "0.1 to 100 nM"],
  ["C=C(C)C(=O)Nc1cnc2c(c1)c(C)cn2-c1nc(Nc2ccn(C)n2)ncc1C [Example 118]", "FGFR3 (V555M) (Homo sapiens, UniProt P22607, V555M)", "> 1000 nM"],
  ["C=CC(=O)Nc1cnc2c(c1)c(C)cn2-c1ccnc(Nc2ccnn2C)n1 [Example 83]", "FGFR3 (V555M) (Homo sapiens, UniProt P22607, V555M)", "0.1 to 100 nM"],
  ["C=CC(=O)Nc1cnc2c(c1)c(C)cn2-c1nc(Nc2ccn(CCO)n2)ncc1C [Example 119]", "FGFR3 (V555M) (Homo sapiens, UniProt P22607, V555M)", "0.1 to 100 nM"],
  ["C=CC(=O)Nc1ccc2c(c1)c(C)cn2-c1nc(Nc2cn(C)nc2C)nnc1Cl [Example 225]", "FGFR3 (V555M) (Homo sapiens, UniProt P22607, V555M)", "250 to 1000 nM"]
]}

----------
- target_desc: FGFR1 (Homo sapiens)
- Construct: made in house; host or cells: E. coli derived from BL21, infected with T7 phage
- Sequence (P11362 22-822): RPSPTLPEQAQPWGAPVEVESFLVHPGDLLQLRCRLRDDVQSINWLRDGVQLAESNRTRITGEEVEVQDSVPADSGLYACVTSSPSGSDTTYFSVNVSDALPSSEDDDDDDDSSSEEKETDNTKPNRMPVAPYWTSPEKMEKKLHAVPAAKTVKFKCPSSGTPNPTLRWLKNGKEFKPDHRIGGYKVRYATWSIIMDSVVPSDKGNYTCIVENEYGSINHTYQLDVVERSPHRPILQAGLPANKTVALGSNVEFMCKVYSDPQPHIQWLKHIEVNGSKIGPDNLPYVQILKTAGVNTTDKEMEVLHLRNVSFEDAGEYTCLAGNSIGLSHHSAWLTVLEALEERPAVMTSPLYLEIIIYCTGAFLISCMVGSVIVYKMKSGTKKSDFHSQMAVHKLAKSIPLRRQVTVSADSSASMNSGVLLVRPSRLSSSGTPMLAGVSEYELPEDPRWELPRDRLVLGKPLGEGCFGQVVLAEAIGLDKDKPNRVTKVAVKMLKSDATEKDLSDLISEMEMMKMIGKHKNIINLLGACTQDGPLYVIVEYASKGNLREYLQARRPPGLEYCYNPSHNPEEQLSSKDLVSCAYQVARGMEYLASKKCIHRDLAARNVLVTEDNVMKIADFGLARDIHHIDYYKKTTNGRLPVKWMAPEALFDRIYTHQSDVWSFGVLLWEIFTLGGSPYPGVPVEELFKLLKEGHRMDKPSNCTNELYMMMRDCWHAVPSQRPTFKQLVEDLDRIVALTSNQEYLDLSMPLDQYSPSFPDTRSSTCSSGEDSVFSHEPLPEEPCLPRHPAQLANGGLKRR
- protocol_notes: Kinase binding assay (kinase-tagged T7 phage, affinity beads, qPCR readout), FGFR1
- conditions_used: FGFR binding data
measured_quantity: Kd

{"columns": ["compound", "measured"],
 "data": [
  ["C=CC(=O)Nc1ccc2c(c1)c(C)cn2-c1nc(Nc2cnn(C)c2C)ncc1Cl [Example 40]", "0.1 to 100 nM"],
  ["C=CC(=O)Nc1ccc2c(c1)c(C)cn2-c1nc(Nc2cnn(CC(C)O)c2)ncc1F (centres unmarked) [Example 158]", "0.1 to 100 nM"],
  ["C=CC(=O)Nc1ccc2c(c1)c(C)cn2-c1nc(Nc2ccn(CC)n2)ncc1C [Example 93]", "0.1 to 100 nM"],
  ["C=CC(=O)Nc1ccc2c(-c3ccnc(Nc4ccn(CCO)n4)n3)cn(C)c2c1 [Example 101]", "100 to 250 nM"],
  ["C=CC(=O)Nc1ccc2c(-c3ccnc(Nc4cnn(C5CC5)c4)n3)cn(C)c2c1 [Example 178]", "0.1 to 100 nM"],
  ["CC#CC(=O)Nc1ccc2c(-c3ccnc(Nc4cnn(CCO)c4)n3)cn(C)c2c1 [Example 145]", "> 1000 nM"],
  ["C=CC(=O)Nc1ccc2c(c1)c(C)cn2-c1nc(Nc2cn(C)cn2)ncc1C [Example 36]", "0.1 to 100 nM"],
  ["C=CC(=O)Nc1ccc2c(-c3ccnc(Nc4cn(CC(F)F)nc4C)n3)cn(C)c2c1 [Example 170]", "100 to 250 nM"]
]}

----------
- target_desc: FGFR3 (V555M) (Homo sapiens, UniProt P22607, V555M)
- Construct: made in house; host or cells: E. coli derived from BL21, infected with T7 phage
- protocol_notes: Kinase binding assay (kinase-tagged T7 phage, affinity beads, qPCR readout), FGFR3 (V555M)
- conditions_used: FGFR binding data
- Protocol: Kinase-tagged T7 phage strains were prepared in an E. coli host derived from the BL21 strain. E. coli were grown to log-phase and infected with T7 phage and incubated with shaking at 32° C. until lysis. The lysates were centrifuged and filtered to remove cell debris. […] Test compounds were prepared as 111× stocks in 100% DMSO. Kds were determined using an 11-point 3-fold compound dilution series with three DMSO control points. […] The kinase concentration in the eluates was measured by qPCR. […]

{"columns": ["compound", "Kd"],
 "data": [
  ["C=CC(=O)Nc1ccc2c(c1)c(C)cn2-c1nc(Nc2cnn(C[C@@H](C)O)c2C)ncc1F [Example 216]", "0.1 to 100 nM"],
  ["C=CC(=O)Nc1ccc2c(c1)c(C)cn2-c1nc(Nc2ccc(N3CCOCC3)nc2)ncc1Cl [Example 91]", "0.1 to 100 nM"],
  ["C=CC(=O)Nc1ccc2c(ccn2-c2nc(Nc3ccc(OCCN4CCOCC4)cc3)ncc2Cl)c1 [Example 10]", "0.1 to 100 nM"],
  ["C=CC(=O)Nc1ccc2c(c1)c(C)cn2-c1ccnc(Nc2cnn(CCO)c2)n1 [Example 137]", "0.1 to 100 nM"],
  ["C=CC(=O)Nc1cnc2c(c1)c(C)cn2-c1ccnc(Nc2ccn(C)n2)n1 [Example 98]", "0.1 to 100 nM"],
  ["C=CC(=O)Nc1ccc2c(c1)c(C)cn2-c1nc(Nc2cnn(C3CCN(C4COC4)CC3)c2)ncc1Cl [Example 34]", "0.1 to 100 nM"],
  ["C=CC(=O)Nc1ccc2c(c1)c(C)cn2-c1nc(Nc2cc(C)nn2C)ncc1C [Example 64]", "0.1 to 100 nM"],
  ["C=C(F)C(=O)Nc1cnc2c(c1)c(C)cn2-c1nc(Nc2ccn(C)n2)ncc1C [Example 117]", "> 1000 nM"],
  ["C=CC(=O)Nc1ccc2c(c1)c(C)cn2-c1ccnc(Nc2ccnn2C)n1 [Example 82]", "0.1 to 100 nM"],
  ["C=CC(=O)Nc1ccc2c(c1)c(C)cn2-c1nc(Nc2cn(C)cn2)ncc1C [Example 36]", "0.1 to 100 nM"],
  ["C=CC(=O)Nc1ccc2c(c1)c(C)cn2-c1ncnc(Nc2cn(C)nc2C)n1 [Example 220]", "100 to 250 nM"],
  ["C=CC(=O)Nc1ccc2c(c1)c(C)cn2-c1nc(Nc2cn(C[C@@H](C)O)nc2C)ncc1F [Example 214]", "0.1 to 100 nM"],
  ["C=CC(=O)Nc1ccc2c(c1)c(C)cn2-c1nc(Nc2ccc(N3CCOCC3)cc2)ncc1C#N [Example 38]", "0.1 to 100 nM"],
  ["C=CC(=O)Nc1ccc2c(c1)c(C)cn2-c1nc(Nc2cnn(CCO)c2C)ncc1F [Example 192]", "0.1 to 100 nM"],
  ["C=CC(=O)Nc1ccc2c(ccn2-c2nc(Nc3ccc(OCCN4CCOCC4)cc3)ncc2Cl)c1C [Example 21]", "0.1 to 100 nM"],
  ["C=CC(=O)Nc1cnc2c(c1)c(C)cn2-c1nc(Nc2ccn(CC)n2)ncc1C [Example 114]", "0.1 to 100 nM"],
  ["C=CC(=O)Nc1ccc2c(c1)c(C)cn2-c1nc(Nc2ccn(C)n2)ncc1C [Example 81]", "0.1 to 100 nM"],
  ["C=CC(=O)Nc1ccc2c(-c3ccnc(Nc4ccn(CC)n4)n3)cn(C)c2c1 [Example 94]", "100 to 250 nM"],
  ["C=CC(=O)Nc1ccc2c(c1)c(C)cn2-c1cc(Nc2cn(C)nc2C)ncc1C [Example 224]", "100 to 250 nM"],
  ["C=CC(=O)Nc1ccc2c(-c3ccnc(Nc4ccn(C5CC5)n4)n3)cn(C)c2c1 [Example 112]", "0.1 to 100 nM"],
  ["C=CC(=O)Nc1ccc2c(c1)c(C)cn2-c1nc(Nc2cn(C)nc2OC)ncc1Cl [Example 26]", "0.1 to 100 nM"],
  ["Cc1cn(-c2nc(Nc3cnn(C[C@@H](C)O)c3)ncc2F)c2ncc(NC(=O)/C=C/CN3CCOCC3)cc12 [Example 197]", "250 to 1000 nM"],
  ["C=CC(=O)Nc1ccc2c(-c3ccnc(Nc4ccn(C)n4)n3)cn(C)c2c1 [Example 92]", "100 to 250 nM"],
  ["C=CC(=O)Nc1ccc2c(c1)c(C)cn2-c1nc(Nc2ccnn2C)ncc1Cl [Example 55]", "0.1 to 100 nM"],
  ["C=CC(=O)Nc1ccc2c(c1)c1ccccc1n2-c1nc(Nc2cnn(C)c2)ncc1F [Example 228]", "> 1000 nM"],
  ["C=CC(=O)Nc1ccc2c(c1)c(C)cn2-c1nc(Nc2cnsc2)ncc1F [Example 148]", "0.1 to 100 nM"],
  ["C=C(C)C(=O)Nc1ccc2c(c1)c(C)cn2-c1nc(Nc2ccnn2C)ncc1C [Example 104]", "> 1000 nM"],
  ["C#CC(=O)Nc1cnc2c(c1)c(C)cn2-c1nc(Nc2cnn(CCO)c2)ncc1C [Example 141]", "0.1 to 100 nM"],
  ["C=CC(=O)Nc1cc(C)c2c(c1)c(C)cn2-c1nc(Nc2ccc(N3CCOCC3)cc2)ncc1Cl [Example 74]", "0.1 to 100 nM"],
  ["C=CC(=O)Nc1ccc2c(c1)c(C)cn2-c1nc(Nc2cnn3c2CCC3)ncc1F [Example 207]", "0.1 to 100 nM"],
  ["C=CC(=O)Nc1ccc2c(ccn2-c2nc(Nc3cccc(OCCN4CCOCC4)c3)ncc2C)c1C [Example 5]", "0.1 to 100 nM"],
  ["C=CC(=O)Nc1ccc2c(-c3ccnc(Nc4cnn(C(F)F)c4)n3)cn(C)c2c1 [Example 188]", "0.1 to 100 nM"],
  ["C=CC(=O)Nc1ccc2c(c1)c(C)cn2-c1cc(Nc2cnn(C)c2)ncn1 [Example 219]", "250 to 1000 nM"]
]}
